Test system: Euproctis fraterna
method_notes: Antifeedant activity against moulted fifth larval stage of Euproctis fraterna infested castor leaves assessed as feeding deterrence index at 20 ppm by leaf disk assay relative to control
Assay type: functional
Assign FDI to each entry below.
Numbers only, in %.

Example cases with answers are listed next.
// query Requested field: FDI. Item: C=C1C(=O)O[C@@H]2C/C(C)=C\C(=O)C[C@@H](C)[C@@H](OC(=O)[C@]3(C)O[C@@H]3C)[C@H](O)[C@@H]12 [VICOLIDE D]
// result 15.37

// query Requested field: FDI. Item: C=C1C(=O)O[C@@H]2C/C(C)=C\C(=O)C[C@@H](C)[C@@H](OC(=O)/C(C)=C\C)[C@H](O)[C@@H]12 [VICOLIDE B]
// result 20.28

Quick batch: FDI for everything below.
1. C=C1C(=O)O[C@H]2[C@H]1[C@@H](O)[C@H](OC(=O)/C(C)=C\C)[C@H](C)[C@@H]1C(=O)C=C(C)[C@H]21 [VICOLIDE A]
2. C=C1C(=O)O[C@H]2[C@H]1[C@@H](OC(=O)[C@@H](C)CC)[C@H](OC(C)=O)[C@H](C)C[C@@H](O)[C@H]1O[C@@]1(C)[C@@H]2O [VICOLIDE C]

// result
15.33
22.37
